Listed variants paired with reported self-cleavage
B1: LINE1-mini (parent)
chain: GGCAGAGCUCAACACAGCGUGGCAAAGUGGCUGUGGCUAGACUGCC

variants of: B1; assay: self-cleavage, relative activity (ratio to wild type); higher = more cleavage; in vitro, sequencing; the parent is a self-cleaving ribozyme
Reply with just the number.

variant_designation	self-cleavage
C8G A14U	0.08
G36A U43A	0.07
G29A	0.88
A11G G27C	0.03
G21A G40A	0.29
C3G U9G	0.3

Input: Any idea what its self-cleavage is? The variant is A14C G17U
Output: 0.28

Input: Next record, please: U34A G40U
Output: 0.06

Input: Next record, please: A4U G30U
Output: 0.22

Input: Next record, please: G7U A14U
Output: 0.11

Input: Next record, please: G21U
Output: 1.06

Input: Next record, please: G35U
Output: 0.16

Input: Next record, please: C8G C18U
Output: 0.1

Data credit: the RNAGym collection of RNA variant scans (doi:10.7554/elife.90254)
